Biological target: Tumor necrosis factor receptor superfamily member 16 (Homo sapiens)
Sequence (whole entry): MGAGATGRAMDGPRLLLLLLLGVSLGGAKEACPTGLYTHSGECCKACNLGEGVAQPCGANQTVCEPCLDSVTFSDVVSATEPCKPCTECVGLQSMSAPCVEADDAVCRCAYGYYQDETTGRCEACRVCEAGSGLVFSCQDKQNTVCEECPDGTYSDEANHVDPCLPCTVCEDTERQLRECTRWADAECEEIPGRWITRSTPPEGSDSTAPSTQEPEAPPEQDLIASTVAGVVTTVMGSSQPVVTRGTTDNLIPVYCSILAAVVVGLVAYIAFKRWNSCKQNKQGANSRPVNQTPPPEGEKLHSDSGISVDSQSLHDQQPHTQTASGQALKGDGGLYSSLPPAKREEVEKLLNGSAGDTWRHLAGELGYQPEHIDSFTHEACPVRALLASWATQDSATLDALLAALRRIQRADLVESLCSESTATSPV
Experiment: Percent inhibition of [125I]- NGF binding to extracellular domain of p75 receptor at 10 uM
Please use true (1) whenever inhibition is not below 30%, and false (0) whenever it is.

>>> class_label("Nc1ccc2c(O)cc(C(=O)O)nc2c1")
"true (1)"
>>> class_label("Cc1ccc(C(=O)Nc2cccc3nc(C(=O)O)cc(O)c23)cc1")
"true (1)"
>>> class_label("COc1cc(C(=O)O)nc2ccc(NC(=O)c3ccc(C)cc3)cc12")
"false (0)"
>>> class_label("COc1cc(C(=O)O)nc2ccc(N)cc12")
"false (0)"
>>> class_label("Nc1cccc2nc(C(=O)O)cc(O)c12")
"true (1)"
